Kindly supply the reported relative viability values for the records listed here.
system: NCI-H23; assay: relative viability (nuclei count vs DMSO), 5 days (fraction); higher = more cells survive; conditions: first compound 1 µM
# answer = number (no unit)

relative viability recorded for this compound, CCN(CC)CCCCNc1ncc2cc(-c3cc(OC)cc(OC)c3)c(NC(=O)NC(C)(C)C)nc2n1 + Nc1ncn([C@H]2C[C@H](O)[C@@H](CO)O2)c(=O)n1 [Decitabine] (partner 2 µM) , is 0.326

relative viability recorded for this compound, CCN(CC)CCCCNc1ncc2cc(-c3cc(OC)cc(OC)c3)c(NC(=O)NC(C)(C)C)nc2n1 + CC(=O)c1c(C)c2cnc(Nc3ccc(N4CCNCC4)cn3)nc2n(C2CCCC2)c1=O [Palbociclib] (partner 0.5 µM) , is 0.466

relative viability recorded for this compound, O=c1cc(N2CCOCC2)oc2c(-c3cccc4c3sc3ccccc34)cccc12 + C[C@@H](Oc1cc(-c2cnn(C3CCNCC3)c2)cnc1N)c1c(Cl)ccc(F)c1Cl [Crizotinib] (partner 1 µM) , is 0.506

meta.source: the supplement of paper PMC10307832
